Give half-life at 2 μM for every item shown.
# Assay Explanation: Hepatocyte stability, 1% final DMSO, 2 μM substrate (t1/2^a)
# Assay type: in vitro ADME
# Stated Conditions: human, cryopreserved hepatocytes, TA with 1% final DMSO, 2 μM substrate, samples at 0, 1, 2, 4 hours; read-out: human hepatocyte t½^a

Compound	Result
Cc1ccc(F)c2c(=O)n(-c3cccc(C#N)c3)c(C(C)Nc3nc(N)nc(N)c3C#N)nc12 (single isomer, unassigned) [Compound 82a]	6 to 10 h
CC(Nc1nc(N)nc(N)c1C#N)c1nc2cccc(F)c2c(=O)n1-c1cc(Cl)cc(Cl)c1 (single isomer, unassigned) [Compound 42a]	> 10 h
Cc1ccc(Cl)c2c(=O)n(-c3cccc(Cl)c3)c(C(C)Nc3nc(N)nc(N)c3C#N)nc12 (single isomer, unassigned)	1 to 3 h
CCC(Nc1nc(N)nc(N)c1C#N)c1nc2c(C)cccc2c(=O)n1-c1cc(F)cc(F)c1 (single isomer, unassigned) [Compound 76a]	> 10 h
CC(Nc1nc(N)nc(N)c1C(N)=O)c1nc2cccc(Cl)c2c(=O)n1-c1cc(F)cc(F)c1 (single isomer, unassigned) [Compound 90a]	> 10 h

Proceed to the following item.
Requested field: half-life at 2 μM. Item: CCC(Nc1nc(N)nc(N)c1C#N)c1nc2c(F)cccc2c(=O)n1-c1cc(F)cc(F)c1 (single isomer, unassigned) [Compound 17a] > 10 h

Origin of values: patent US9029384B2
